# Tested on: Pseudomonas aeruginosa expressing AmpC (CL5701)
# experimental protocol: Antibiotic activity: growth inhibitory concentration (OD600), Pseudomonas aeruginosa CL5701
# Type: cell-based
# assay context: lowest concentration inhibiting 95% of bacterial growth; in the presence of β lactamase inhibitor Relebactam 4 μg/mL; 35±2° C. for 22 hours; tested range 100 μM to 0.098 μM
# Description: Antibiotic Activity: Determination of Growth Inhibitory Concentration The concentrations of compounds required to inhibit the growth of various strains of bacteria were determined in an assay that assessed bacterial growth by measuring optical density at 600 nm (OD600). […] At the end of the incubation, absorbance at 600 nm was determined using a spectrophotometer. […]
Below: a set of entries, each annotated with reported PA_CL5701 MITC95.
# unit: µM | format: bare number

Query: Item CC1(C)[C@H](NC(=O)/C(=N\OCCOc2ccc(-c3cnn(CCCN)c3)cc2)c2csc(N)n2)C(=O)N1OS(=O)(=O)O has what recorded PA_CL5701 MITC95?
Reply: 50

Query: Item CC1(C)[C@H](NC(=O)/C(=N\O[C@H](COc2ccc(Nc3nccn3CCCN)nc2)C(=O)O)c2csc(N)n2)C(=O)N1OS(=O)(=O)O [Example 37B, 2,2,2-trifluoroacetate] has what recorded PA_CL5701 MITC95?
Reply: 25

Query: Item C[n+]1cc(-c2ccc(OC[C@H](O/N=C(\C(=O)N[C@@H]3C(=O)N(OS(=O)(=O)[O-])C3(C)C)c3csc(N)n3)C(=O)O)cc2Cl)cn1CCCN has what recorded PA_CL5701 MITC95?
Reply: 6.25

Next:
Query: Item C[n+]1cc(-c2ccc(OC[C@H](O/N=C(\C(=O)N[C@@H]3C(=O)N(OS(=O)(=O)O)C3(C)C)c3csc(N)n3)C(=O)O)cc2F)cn1CC(O)CN.O=CO (some centres unmarked) has what recorded PA_CL5701 MITC95?
Reply: 3.125

Query: Item Cc1cn(CCCN)[n+](C)c1-c1ccc(OC[C@H](O/N=C(\C(=O)N[C@@H]2C(=O)N(OS(=O)(=O)O)C2(C)C)c2csc(N)n2)C(=O)O)cc1.O=C([O-])C(F)(F)F has what recorded PA_CL5701 MITC95?
Reply: 12.5

Query: Item Cc1cc(-c2ccc(OC[C@H](O/N=C(\C(=O)N[C@@H]3C(=O)N(OS(=O)(=O)O)C3(C)C)c3csc(N)n3)C(=O)O)cc2)n(CCCN)[n+]1C.O=C([O-])C(F)(F)F has what recorded PA_CL5701 MITC95?
Reply: 12.5

Query: Item CC1(C)[C@H](NC(=O)/C(=N\O[C@@H](COc2ccc(-n3cc[n+](CCCN)c3)nc2)C(=O)O)c2csc(N)n2)C(=O)N1OS(=O)(=O)[O-] [Example 112] has what recorded PA_CL5701 MITC95?
Reply: 10.42

Query: Item C[n+]1cc(-c2ccc(OC[C@@](C)(O/N=C(\C(=O)N[C@@H]3C(=O)N(OS(=O)(=O)O)C3(C)C)c3nc(N)sc3Cl)C(=O)O)cc2)cn1CCCN [Example 51B] has what recorded PA_CL5701 MITC95?
Reply: 25

====

Below: a set of entries, each annotated with reported PA_CL5701 MITC95.
# System: Pseudomonas aeruginosa expressing AmpC (CL5701)
# experimental protocol: Antibiotic activity: growth inhibitory concentration (OD600), Pseudomonas aeruginosa CL5701
# Assay type: cell-based
# assay context: lowest concentration inhibiting 95% of bacterial growth; in the presence of β lactamase inhibitor Relebactam 4 μg/mL; 35±2° C. for 22 hours; tested range 100 μM to 0.098 μM
# Protocol: Antibiotic Activity: Determination of Growth Inhibitory Concentration The concentrations of compounds required to inhibit the growth of various strains of bacteria were determined in an assay that assessed bacterial growth by measuring optical density at 600 nm (OD600). […] At the end of the incubation, absorbance at 600 nm was determined using a spectrophotometer. […]
# unit: µM | format: bare number

Answered examples (4):
Query: Item CC1[C@H](NC(=O)/C(=N\O[C@@H](COc2ccc(-c3cnn(CCCN)c3)cc2)C(=O)O)c2csc(N)n2)C(=O)N1S(=O)(=O)O (stereo in doubt) has what recorded PA_CL5701 MITC95?
Reply: 25

Query: Item C[C@H]1[C@H](NC(=O)/C(=N\O[C@@H](COc2ccc(-c3cnn(CCCN)c3)cc2)C(=O)O)c2csc(N)n2)C(=O)N1S(=O)(=O)O has what recorded PA_CL5701 MITC95?
Reply: 100

Query: Item CC(CN)Nc1ccc(-c2ccc(OC[C@H](O/N=C(\C(=O)N[C@@H]3C(=O)N(OS(=O)(=O)[O-])C3(C)C)c3csc(N)n3)C(=O)O)cc2)c[n+]1C (some centres unmarked) [Example 76] has what recorded PA_CL5701 MITC95?
Reply: 3.125

Query: Item C[n+]1cc(-c2ccc(OC[C@@H](CO)O/N=C(\C(=O)N[C@@H]3C(=O)N(OS(=O)(=O)O)C3(C)C)c3csc(N)n3)cc2)ccc1NCCN has what recorded PA_CL5701 MITC95?
Reply: 50

Moving on to the next compound.
Query: Item CC1(C)[C@H](NC(=O)/C(=N\O[C@@H](COc2ccc(-n3cc[n+](CCC[N+](C)(C)C)c3)nc2)C(=O)O)c2csc(N)n2)C(=O)N1OS(=O)(=O)O has what recorded PA_CL5701 MITC95?
Reply: 50

====

Below: a set of entries, each annotated with reported PA_CL5701 MITC95.
# Test system: Pseudomonas aeruginosa expressing AmpC (CL5701)
# experimental protocol: Antibiotic activity: growth inhibitory concentration (OD600), Pseudomonas aeruginosa CL5701
# Type: cell-based
# assay context: lowest concentration inhibiting 95% of bacterial growth; in the presence of β lactamase inhibitor Relebactam 4 μg/mL; 35±2° C. for 22 hours; tested range 100 μM to 0.098 μM
# unit: µM | format: bare number

Query: Item CC(CN)Nc1ccc(-c2ccc(OC[C@H](O/N=C(\C(=O)N[C@@H]3C(=O)N(OS(=O)(=O)[O-])C3(C)C)c3csc(N)n3)C(=O)O)cc2)c[n+]1C (stereo partly drawn) [Example 75] with Pseudomonas aeruginosa expressing AmpC (CL5701) - PA_CL5701 MITC95?
Reply: 3.125

Query: Item CN(CC(O/N=C(\C(=O)N[C@@H]1C(=O)N(OS(=O)(=O)[O-])C1(C)C)c1csc(N)n1)C(=O)O)c1ccc(-c2cn(CCCN)[n+](C)c2)cc1 (stereo partly drawn) with Pseudomonas aeruginosa expressing AmpC (CL5701) - PA_CL5701 MITC95?
Reply: 100

Query: Item CC1(C)[C@H](NC(=O)/C(=N\O[C@@H](COc2ccc([C@H]3CN=C(NCCN)N3)cc2)C(=O)O)c2csc(N)n2)C(=O)N1OS(=O)(=O)O with Pseudomonas aeruginosa expressing AmpC (CL5701) - PA_CL5701 MITC95?
Reply: 3.125

Query: Item C[n+]1cn(CCCN)cc1-c1ccc(OC[C@H](O/N=C(\C(=O)NC2C(=O)N(OS(=O)(=O)[O-])C2(C)C)c2csc(N)n2)C(=O)O)cc1 (stereo partly drawn) with Pseudomonas aeruginosa expressing AmpC (CL5701) - PA_CL5701 MITC95?
Reply: 3.125

Query: Item C[n+]1cc(-c2ccc(OC[C@H](O/N=C(\C(=O)N[C@@H]3C(=O)N(OS(=O)(=O)[O-])C3(C)C)c3csc(N)n3)C(=O)O)cc2)cn1CCN with Pseudomonas aeruginosa expressing AmpC (CL5701) - PA_CL5701 MITC95?
Reply: 6.25

Moving on to the next molecule.
Query: Item Cn1c(-c2ccc(OC[C@H](O/N=C(\C(=O)N[C@@H]3C(=O)N(OS(=O)(=O)O)C3(C)C)c3csc(N)n3)C(N)=O)cc2)cn(CCCN)c1=N with Pseudomonas aeruginosa expressing AmpC (CL5701) - PA_CL5701 MITC95?
Reply: 50

====

# System: Pseudomonas aeruginosa expressing AmpC (CL5701)
# experimental protocol: Antibiotic activity: growth inhibitory concentration (OD600), Pseudomonas aeruginosa CL5701
# Assay type: cell-based
# assay context: lowest concentration inhibiting 95% of bacterial growth; in the presence of β lactamase inhibitor Relebactam 4 μg/mL; 35±2° C. for 22 hours; tested range 100 μM to 0.098 μM
Use 20 µM as the dividing line for PA_CL5701 MITC95, with the line itself on the condition met side and lower values as condition not met.

Please review the entries below; each comes with its answer.
Query: Decide: PA_CL5701 MITC95 of CCOC(=O)[C@H](COc1ccc(-c2cn(CCCN)c(=N)n2C)cc1)O/N=C(\C(=O)N[C@@H]1C(=O)N(OS(=O)(=O)O)C1(C)C)c1csc(N)n1 [Example 116] >= 20 µM?
Reply: condition met

Query: Decide: PA_CL5701 MITC95 of CC1(C)[C@H](NC(=O)/C(=N\O[C@@H](COc2ccc(-c3cn(CCCN)c(N)n3)cc2)C(=O)O)c2csc(N)n2)C(=O)N1OS(=O)(=O)O.O=C(O)C(F)(F)F [Example 31] >= 20 µM?
Reply: condition not met

Query: Decide: PA_CL5701 MITC95 of C[n+]1cc(NCCN)ccc1-c1ccc(OC[C@H](O/N=C(\C(=O)N[C@@H]2C(=O)N(OS(=O)(=O)[O-])C2(C)C)c2csc(N)n2)C(=O)O)cc1 [Example 72] >= 20 µM?
Reply: condition not met

Query: Decide: PA_CL5701 MITC95 of CC1(C)[C@H](NC(=O)/C(=N\O[C@@H](COc2ccc(-c3cc(CNCCN)n(CCCN)n3)cc2)C(=O)O)c2csc(N)n2)C(=O)N1OS(=O)(=O)O [Example 125] >= 20 µM?
Reply: condition not met

Query: Decide: PA_CL5701 MITC95 of C[n+]1cc(-c2ccc(OC[C@H](O/N=C(\C(=O)N[C@@H]3C(=O)N(OS(=O)(=O)[O-])C3(C)C)c3csc(N)n3)C(=O)O)cc2)ccc1N1CCNCC1 [Example 71] >= 20 µM?
Reply: condition not met

Query: Decide: PA_CL5701 MITC95 of CC1(C)[C@H](NC(=O)/C(=N\O[C@@H](COc2ccc(-n3cc[n+](CCCN)c3)nc2)C(=O)O)c2csc(N)n2)C(=O)N1OS(=O)(=O)[O-] [Example 36] >= 20 µM?
Reply: condition not met

Query: Decide: PA_CL5701 MITC95 of C[n+]1cc(-c2ccc(OC(CO/N=C(\C(=O)N[C@@H]3C(=O)N(OS(=O)(=O)[O-])C3(C)C)c3csc(N)n3)C(=O)O)cc2)cn1CCCN (some centres unmarked) [Example 84] >= 20 µM?
Reply: condition met

Query: Decide: PA_CL5701 MITC95 of C[n+]1cc(-c2ccc(OC[C@H](O/N=C(\C(=O)N[C@@H]3C(=O)N(OS(=O)(=O)[O-])C3(C)C)c3nc(N)sc3Cl)C(=O)O)cc2F)ccc1NCCN [Example 69] >= 20 µM?
Reply: condition not met

Query: Decide: PA_CL5701 MITC95 of C[n+]1cc(-c2ccc(OCCO/N=C(\C(=O)N[C@@H]3C(=O)N(OS(=O)(=O)O)C3(C)C)c3csc(N)n3)cc2)cn1CCCN [Example 4] >= 20 µM?
Reply: condition met

Query: Decide: PA_CL5701 MITC95 of C[C@@H](COc1ccc(-c2ccc(NCCN)[n+](C)c2)cc1)O/N=C(\C(=O)N[C@@H]1C(=O)N(OS(=O)(=O)O)C1(C)C)c1csc(N)n1 [Example 90] >= 20 µM?
Reply: condition met

Attention now shifts to the item below.
Query: Decide: PA_CL5701 MITC95 of C[n+]1cc(-c2ccc(OC[C@H](O/N=C(\C(=O)N[C@@H]3C(=O)N(OS(=O)(=O)[O-])C3(C)C)c3csc(N)n3)C(=O)O)nn2)cn1CCCN [Example 106] >= 20 µM?
Reply: condition met
